The reported numbers originate from the nanobody polyreactivity screen of Harvey et al. (2022).

assay: yeast display, Sf9 membrane polyspecificity reagent, FACS + sequencing; frameworks hold sequencing errors
Recorded Endpoint: polyreactivity (PSR sort gate)

Reference set (10 entries):
>>> assay_result("QVQLQDSGGGLVQAGGSLRLSCAASGTIIWYSDLGWYRQAPGKERKFVAGIGFGSNSNFADSVRGRFTISRDNAKITVYLQMNSLKPEDTAVYYCEAVWFDYSTHRYWGQGTQVTVCS")
"high polyreactivity"
>>> assay_result("QVQLVESGGGLVQAGGSLRLSCAASGSIFRYNAMGWYRQAPGKERELVAGITWGGGRTYYADSVKGRFTISRDNAKNTVYLQMNSLKPEDTAVYYCAAVIARPAVQAYLVTKYDYWGQGTQVTVSS")
"high polyreactivity"
>>> assay_result("QVQLVESGGGLVQAGGSLRLSRAASGRTFYGYAMGWYRQAPGKESELVARIRSGGSTNYADSVKGRFTISRDNAKNTVYLQMNSLIPEDTAVYYCAARPGAAGYKYYYWGQGTQVTVSS")
"high polyreactivity"
>>> assay_result("QVQLVESGGGLVQAGGSLRLSCAASGSNFFSNAMGWYRQAPGKERELVAAITSTGGSTYYADSVKGRFTISRDNAKNTVYLQMNSLKPEVTAVYYCAAASRRGYYYWGQGTQVTVSS")
"high polyreactivity"
>>> assay_result("QVQLVESGGGLVQAGGSLRLSCAASGRILSYYAMGWYRQAPGKERELVAAITRGGSTYYADSVKGRFTISRDNAKNTVYLQMNSLKPEDTAVYYCAARKKTTYRDWGRHDYWGQGTQVTVSS")
"high polyreactivity"
>>> assay_result("QVQLVESGGGLVQAGGSLRLSCAASGRIFTRYAMGWYRQAPWKERELVAVITRSGGSTYYADSVKGRFTISRDNAKNTVYFKMNSLIPEDTAVYYCAVRPYELHRLADQPGGDDYWGQGTQVTVSS")
"low polyreactivity"
>>> assay_result("QVQLVESGGGLVQAGGSLRLSCAASGRIFPYYTRGWYRQAPGKERELVATITTGGSTNYADSVKGRFTISRDNAENTVYLQMNSLKPEDTAVYYCAKREASSRWPYDYWGQGTQVTVSS")
"low polyreactivity"
>>> assay_result("QVQLVESGGGLVQAGGSLRLSCAASGSTLQRYAMGWYRQAPGKEREFVAAINWSGSNTYYADSVKGRFTISRDNAKNTVYLQMNSLKPEDTAVYYCATNTWLFGGNYWGQGTQVTVSS")
"high polyreactivity"
>>> assay_result("QVHLVESGGGLVQAGGSLRLSCAASGRTFQYNAMGWYRQSPGTERELVAAISWRGARTYYADSVKGRFTISRDYAKNTVYLQMNSLNPEDTAVYYCAAAPYGYRRYEYWGQGTQVTVSS")
"high polyreactivity"
>>> assay_result("QVQLVLLGGGLVQAGGTLRVSCAPSGSIIYWKDRGWYRQAPGKERELDASITASGSSTYYADSVKGRFTISRDNGKNTVYLQMNSLLPEDTAVYYCNTSVFTYYDSAYDYWGQGTQVTVSS")
"low polyreactivity"

Prompt: Any idea what polyreactivity (PSR sort gate) was measured for QVQLVESGGGLVHAGGSLRLSCAASGGTLYRYAMGWYRQAPGKERELVAGISSSGGRTYYADSVKGRFTISRDNAKNTVYLQMNSLKPEDTAVYYCAKYWVSSYDYWGQGTQVTVSS ?
Completion: high polyreactivity

Prompt: Please look up its polyreactivity (PSR sort gate): QVQLVESGGGLVQAGGSLRLSCAASGNAMGWYRQAPGNERELVAAITRRGGSTYYADSVKGRFTISRDNAKNTVYLQMNSLKPEDTAVYYCAADNPSYNLWYGYWGQGTQVTVSS
Completion: low polyreactivity

Prompt: Query (sequence): QVQLVESGGGLVQAGGSLRLSCAASGSTFNNYAMGWYSQAPGKERELVAAITRGGGSTHYADSVKGRFTISRDNAKKTVYFQMNCRKPEDTAVYYCAVAGFDRGQYVRYYYWGQGTQVTVSS ; field requested: polyreactivity (PSR sort gate)
Completion: low polyreactivity

* * *

assay: yeast display, Sf9 membrane polyspecificity reagent, FACS + sequencing; frameworks hold sequencing errors
Recorded Endpoint: polyreactivity (PSR sort gate)

Answered cases to consult:
>>> assay_result("QVQLVESGGGLVQAGGRLRFSCAASGRIFYSYTMGWYRQAPGKERELVASISRSSGDTYYADSVKGRFTISRDNAKNPVYLQMNSLKPEDTAVYYWAARIKTYSKRYYWGQGTQVTVSS")
"high polyreactivity"
>>> assay_result("QVQLVESGGGLVQAGCSLRISSAASGRIFAVKAMGWYRQAPGKDRELVAAITNVGSTNYADSVKGRFTISRDNAKNTVYLQMNSLKPEDTAVYYCNADLAQEDWKMDYWGQGTQVTVSS")
"low polyreactivity"
>>> assay_result("QDQLVESRGGLVQAGGSLRISCAASGSPFYRNAKGWNTQAPGKERELVATISTGGVSTYYADSVKGRFTISRDNAKNTVYLQMNSLKPEDTAVYYCAQRTVYLSNLDYWGQGTQVTVTS")
"low polyreactivity"
>>> assay_result("QVQLVESGGGLVQSGGSLRLSCAASGSTFVWYAMGWYRQAPGKERELVAAITDSGDDTYYADSVKGRFTISRDNAKNTVYLQMNSLKAEDNAVYYCAVVAWSVPPYDYWGQGTQVTVSS")
"low polyreactivity"
>>> assay_result("QVQLVESGRGLVQAGGSLRLSCADSGRTFGYYGMGWYRQAPGKEREFVAAITRSGGSTYYADSVKGRFTISRDHAKNTVYLQMNSLKPEDTAVYYCAAAHLFTRSRPYDYWGQGTQVTVSS")
"high polyreactivity"

Prompt: Look up polyreactivity (PSR sort gate) for this sequence: QVQLVESGGGLVQAGGSLRLSCAASGSTLVYNDMGWYRQAPGKERELVAAISSGASTYADSVKGRFTISRDNAKNTVYLQMNSLKPEDTAVYYCAKDIKLGPVGHSKYHRYDYWGQGTQVTVSS
Completion: low polyreactivity

Prompt: Give its polyreactivity (PSR sort gate) value. Item: QVQLVESGGGLVQAGASLRLSCAASGSIFSSYARGWYRPAPGKERELVAVITNGGSTYYADSVKGRFTISRDYAKNTVYLQMNSLKPEDTAVYYCNARWTKGRKYGYWGQGTQVTVSS
Completion: low polyreactivity

Prompt: Suppose we examine the sequence QVQLVESGGGLVQAGGSLRLSCAASGRIFWGYAMGWYRQAPGKERELVAAINRGSSTYYADSVKGRFTISRDNAKNTVYLQMNSLKPEDTAVYYCAVKGYLPYTGIFDYWGQGTQVTVSS ; what polyreactivity (PSR sort gate) value has been reported?
Completion: high polyreactivity

Prompt: Give the measured polyreactivity (PSR sort gate) of QVQLVESGVGLVQAGGSLRLSCVASGLTFSRYAMGWYRQAPGKERELVAAISRRGGTTYYADSVKGRFTISRDNAKNTVYLQMKSLKPEDTAVYYCGAGYITWGSGNWVVTPYAYWGQGTQVSVSS .
Completion: high polyreactivity

Prompt: Given the entry QVQHVESGGGLVQAGGSLRLSCAASGRTFDRNAMGWYRQPPGKERELVAGITRSGDSTYADSVKVRFTISRDNAKNTVYLQMNSLKPVDTAVYYCNKEGTIGGTRGYWGQGTQVTVSS , report its measured polyreactivity (PSR sort gate).
Completion: low polyreactivity

Prompt: Which value of polyreactivity (PSR sort gate) has been reported for QVQLVESGGGLVQAGGSLRLSCAASGYTFRYYAMGWYRQAPGKERELVAAISSSGGNTYYADSVKGRFTISRDNAKNTVYLQMNSLIPEDTAVYYCAARRYQYPGHSLGYYYTDYYWGQGTQVTVSS in the records?
Completion: low polyreactivity

Prompt: What polyreactivity (PSR sort gate) value was documented for this sequence, QVQLVESGGGLVQAGGSLRLSCAASGSLFPHYAMGWNRQAPGKEREFVATISGSTGRTYYADSVKGRFTISRDNAKNTVYLQMNSLKPEDTAVYYCATSVGYYLPPIKYDYWGQGTQVTVSS ?
Completion: low polyreactivity

Prompt: Any idea what polyreactivity (PSR sort gate) was measured for QVQLVESGGGLVQAGGSLRLSCAASGYTFFEYTMGWYRQAPGKVREFVAAISWSGGITYYADSVKGRFTISRDNAKNTVYLQMNSLKPEDTAVYYCNADIYSPTPIDYNYWGQGTQVTVSS ?
Completion: low polyreactivity

Prompt: So what does the record say about polyreactivity (PSR sort gate) for QVKLVESGGGLVQAGGSLRLSCAASGFTFNRYAMGWYRQAPGKERELVAAISWSGGSTYYADSVKGRFTISRDNAKNTVYLQMNSLKPEDTAVYYCAAATAYYRYRGGYDYWGQGTQVTVSS ?
Completion: high polyreactivity

* * *

test: yeast display, Sf9 membrane polyspecificity reagent, FACS + sequencing; frameworks hold sequencing errors
Recorded Endpoint: polyreactivity (PSR sort gate)

>>> assay_result("QVQLVESGGGLVQAGGSLRLSCAASGSTFAKNAMGWYRQAPGKERQLVAAITYSGGSTYYADSVKGRFTISRDNAKNTVYLQMNSLKPEDTAVYYCAADVWWSYYRYDYWGQGTQVTVSS")
"low polyreactivity"
>>> assay_result("QVQLVESGGGLVQAGGSLRLSCAASGHIFLGNVMGWYRQAPGKERELVAAISKRGGRTYYADSVKGRFTISRDNAKNTVYLQMNSLKPEDTAVYYCAAVIDSREEYWGQGTQVTVSS")
"high polyreactivity"
>>> assay_result("QVQLVESGGGLVQAGGSLRLSCAASGSIFQRNAMGWYRQAPGKERELVAAITYSGGGTYYADSVKGRFTISRDNAKNTVYLQMNSLKPEDTAVYYCAADYKSKYSGYIYDYWGQGTQVTVSS")
"low polyreactivity"
>>> assay_result("QGQLVESGGGLVQAGGSLRISCAASGRIYRINAMGWYRQAPGKERELVANITSGGGSTYADSVKGRFTISRDNAKNTVYLQMNSRKPEDTAVYYCAARSRIGRYTYDYWGQGTQVTVSS")
"high polyreactivity"
>>> assay_result("QVQLVESGGGLVQAGGSLRLSCAASGSFFRNYAMGWYRQAPGKERELVAAISRRGTSTFYADSVKGRFTISRDNAMNTVYLQMNSLKPEDTAVYYCAARGSAGGDYGYWGQGTQVTVSS")
"high polyreactivity"
>>> assay_result("QVQLVESGGGLVQAGGSLRLSCAASGFSFSYYAMGWYRQAPGKERELVAAINYSGTSTYYADSVKGRFTISRDNAKNTVYLQMKSLKPEDTAVYYCAADLPYYPYLYDYWGQGTQVTVSS")
"low polyreactivity"

Prompt: Fill in: polyreactivity (PSR sort gate) of QVQLVESGGGLVQAGGSLRLSCAASGSTFFTYAMGWYRQAPGKERELVASISIGGSTNYADSVKGRFTISRDNAKNTVYLQMNSLKPEDTAVYYCAIRYFTFGVDYDYWGHGTQVTVSS is ___
Completion: low polyreactivity

Prompt: Look at this sequence and give its reported polyreactivity (PSR sort gate). QVHLVESGGGLVQAGGSLRLSCAASGFIFHLNSMGWYRQAPGTERELVAAFSWNGGSTFYADSVKGRFTISRDNAKNTVYLQMNSLKPEDTAVYYCNADFRPAYTYDYWGQGTQVTVSS
Completion: low polyreactivity

Prompt: Name the reported polyreactivity (PSR sort gate) value associated with the sequence QVQLVESGGGLVQAGGSLRLICAASGSTYRYYAMGWSRQAPGKERELVAGITGSGGSTYYADSVKGRFTISRDNAKNTVYLQMNSLNPEDTAVYDCATKLRRWRFYAAYDYWGQGTQVTVSS
Completion: high polyreactivity

Prompt: Any idea what its polyreactivity (PSR sort gate) is? The sequence is QVHLVESGGGLVQAGGSLRLSCAASGRTFYRYAMGWYRQAPGKERELVAAINTGGSTYYADSVKGRFTISRDNAKTTVYLQMNSLKPEVTAVYYCAAEAASWWGYGYWGQGTKVTVSS
Completion: high polyreactivity

Prompt: Value lookup for polyreactivity (PSR sort gate); key = QVQLVESGGGLVQAGGSIRLSCAASGSTFWPYAMGWYRQAPGKERELVAAITTSGGITYYADSVKGRFTISRDKAKITVYLQMNSVKPEDTAVYYCAADLSYHGYGYWGQGTQVTVSS
Completion: low polyreactivity
